Values compiled from PubChem BioAssay (NCI).

System: A549 NSCLC
test.details: NCI tumour cell line growth inhibition, 48 h; in the data active = GI50 below about 0.43 µM; inactive = the rest
Please answer using one outcome listed in true (1) = active, false (0) = inactive

Previously resolved entries follow.
CC(=O)Nc1ccc2c(c1)[nH]c(=O)c1cc(NC(C)=O)ccc12    false (0)
O=C1NC(=O)/C(=C/c2ccc3nccc(-c4ccncc4)c3c2)S1    false (0)

**Q:** Look up the recorded call for C[C@H]1O[C@@H](O[C@H]2[C@@H](O)C[C@H](O[C@H]3[C@@H](O)C[C@H](O[C@H]4CC[C@]5(C)C6CC[C@]7(C)[C@@H](C8=CC(=O)OC8)CC[C@]7(O)C6CC[C@@H]5C4)O[C@@H]3C)O[C@@H]2C)C[C@H](O)[C@@H]1O (stereo not given in full) in this test.
**A:** true (1)

* * *

Test system: NCI-H522 lung
test.details: NCI tumour cell line growth inhibition, 48 h
value.kind: TGI (µM)
Kindly answer with a numeric value in µM, unit omitted.

C=C1C(O)C2OC(=O)C(=C)C2C(OC(=O)/C(C)=C/C)CC2(C)OC2C2OC12 (stereo not given)    15.6

Value of measured TGI for the entry CCc1cc2c(cc1O)CC[C@@H]1[C@@H]2CC[C@]2(C)[C@@H](O)CC[C@@H]12 : 27.3

Value of measured TGI for the entry CC(=O)OCc1cc[c]([Hg][Cl])o1 : 2.45

Value of measured TGI for the entry Cc1ccccc1N=C(c1ccccc1)C1C(=O)c2ccccc2C1=O : 17.7

* * *

Catalogue of GI50 values
Tested on: DU-145 prostate
test.details: NCI tumour cell line growth inhibition, 48 h

// solved cases for GI50 follow
CN1c2cccc[c]2[Sn]([CH3])([CH3])[c]2ccccc21    < 0.0131 µM
N/C(=N/O)NOCCC(N)C(=O)O (stereo unspecified)    > 100 µM
CC(=O)Nc1ccc2c(c1)[nH]c(=O)c1cc(NC(C)=O)ccc12    > 100 µM

Value of measured GI50 for the entry C#Cc1cccc(NC(=O)C2CCCCN2C(=O)CCl)c1 (stereo unspecified) : 24.4 µM

* * *

System: 786-0 renal
test.details: NCI tumour cell line growth inhibition, 48 h
Catalogue of TGI values

// solved cases for TGI follow
CC(C)(C)c1cc([Si](C)(C)C)c(C#N)c([Si](C)(C)C)c1    > 100 µM
OCC1OC(n2cnc3cc(Cl)c(Cl)cc32)C(O)C1O (centres undefined)    > 68.3 µM

Value of measured TGI for the entry CN1C(=O)c2c(c3c4ccccc4n(C)c3c3c2c2ccccc2n3C)C1=O : > 100 µM

Value of measured TGI for the entry COc1cc(/C=C/[N+](=O)[O-])cc(OC)c1 : 3.31 µM

Value of measured TGI for the entry C[C@]12CC[C@@H]3c4cc(C=O)c(OCc5ccccc5)cc4CC[C@H]3[C@@H]1CCC2OCc1ccccc1 (some centres undefined) : > 100 µM

Value of measured TGI for the entry CN(N=O)N1C(=O)SCC(c2ccccc2)(c2ccccc2)C1=O : > 100 µM

Value of measured TGI for the entry COc1ccc(N2CCN(c3nc(-c4ccccn4)nc4sc5c(c34)CCCCCC5)CC2)cc1 : > 100 µM

Value of measured TGI for the entry COc1cc([C@@H]2c3cc4c(cc3[C@H](OC3OC5COC(C(C)C)OC5C(O)C3O)C3COC(=O)[C@@H]32)OCO4)cc(OC)c1OC (some centres undefined) : 12.5 µM

Value of measured TGI for the entry c1ccc2cc(Cn3c(-c4cccc5ccccc45)[n+](Cc4ccc5ccccc5c4)c4c5ccccc5c5ccccc5c43)ccc2c1 : 1.7 µM

* * *

Tested on: SF-539 CNS
test.details: NCI tumour cell line growth inhibition, 48 h
value.kind: TGI (µM)
Kindly answer with a numeric value in µM, unit omitted.

Value of measured TGI for the entry O=C(NC12CC3CC(CC(C3)C1)C2)n1cnc2c(Cl)ncnc21 : 81.7

Value of measured TGI for the entry Cc1[nH]c(-c2ccccc2)c(O)c1C(=O)OC1CC(C)CCC1C(C)C (centres undefined) : 29.7

Value of measured TGI for the entry Cc1ccc2c(c1)n([O-])c(C(F)(F)F)c(C(=O)c1ccco1)[n+]2=O : 2.67

Value of measured TGI for the entry COc1cc(N2CCN(C(C)C)CC2)ccc1Nc1nc(Nc2ccc(F)cc2C(N)=O)c2cc[nH]c2n1 : 6.33

Value of measured TGI for the entry COc1ccc2cc(CNCCOCCOCCNCc3ccc4cc(OC)ccc4c3)ccc2c1 : 3.03

Value of measured TGI for the entry COc1ccc(C2CC(=O)Nc3c2c(C)nn3-c2nc3ccccc3[nH]2)cc1OC (centres undefined) : 9.48

Value of measured TGI for the entry c1ccc2c(c1)CCCc1nnc3nc4ccccc4n3c1-2 : 18.4

Value of measured TGI for the entry CC(C)(C)c1ccc(OCCOc2ccc(C(C)(C)C)cc2NC=O)c(NC=O)c1 : 21.6

Value of measured TGI for the entry O=C(Nc1c(Cl)cccc1Cl)Oc1cccc2cccnc12 : 19

Value of measured TGI for the entry COc1ccc(/C=C2\CCC(C)(CN(C)C)C2=O)cc1Br (centres undefined) : 43.5

Value of measured TGI for the entry O=C(/C=C/c1cc2ccccc2[nH]c1=O)c1ccc(O)cc1 : 8.64

Value of measured TGI for the entry Cn1cc(-c2nc(-c3c[nH]c4ccccc34)cs2)c2cccnc21 : 1.44

Value of measured TGI for the entry Nc1ccc(Oc2ccc(C34CC5CC(C3)CC(c3ccc(Oc6ccc(N)c(O)c6)cc3)(C5)C4)cc2)cc1O : 4.57

Value of measured TGI for the entry Fc1ccc(Nc2ccnc(N3CCN(c4ccnc5cc(Cl)ccc45)CC3)n2)cc1 : 10.3

Value of measured TGI for the entry Cc1ccc(S(=O)(=O)N(CC(O)COc2ccccc2)c2ccccc2Cl)cc1 (centres undefined) : 33.2

Value of measured TGI for the entry COC(=O)c1cc(NC(=O)Cn2c3ccccc3c3ccccc32)cn1C : 63.1

* * *

Catalogue of TGI values
System: NCI-H226 lung
test.details: NCI tumour cell line growth inhibition, 48 h

// solved cases for TGI follow
COc1cc([C@@H]2c3cc4c(cc3[C@H](OC3OC5COC(C(C)C)OC5C(O)C3O)C3COC(=O)[C@@H]32)OCO4)cc(OC)c1OC (stereo partly specified)    12.6 µM
CCOC(=O)C(NS(=O)(=O)c1ccccc1)(C(F)(F)F)P(=O)(OCC(C)C)OCC(C)C (stereo unspecified)    > 100 µM
Cc1ccccc1N=C(c1ccccc1)C1C(=O)c2ccccc2C1=O    57.5 µM

Could you now look at the following compound, please?
Value of measured TGI for the entry Cn1cc(-c2nc(-c3c[nH]c4ccccc34)cs2)c2cccnc21 : > 100 µM

* * *

System: HCT-116 colon
test.details: NCI tumour cell line growth inhibition, 48 h; in the data active means GI50 below about 0.43 µM; inactive means the rest
Please answer using one outcome listed in yes (1) (active), no (0) (inactive)

Previously resolved entries follow.
Cc1c(-c2c(F)cc(C(N)=O)c3[nH]c4c(c23)CC[C@H](C(C)(C)O)C4)cccc1-n1c(=O)c2cccc(F)c2n(C)c1=O    no (0)
O=C(Nc1n[nH]c2cc(-c3ccc(F)cc3)ccc12)C1CC1    no (0)
C=C1[C@H](O)C[C@@H](C(C)C(O)CC=C(C)C)[C@@H](O)[C@@H]2C(C)=CC[C@@H]12 (some centres not stated)    no (0)
O=[N+]([O-])c1ccc(NC(c2ccccc2)c2ccc3cccnc3c2O)cc1 (configuration not stated)    yes (1)
c1ccc(OCC[P+](c2ccccc2)(c2ccccc2)c2ccccc2)cc1    no (0)
Clc1ccc(Nc2nnc(COc3ccccc3)c3ccccc23)cc1    no (0)

Now take the following compound into account.
**Q:** Look up the recorded call for O=C(O)[C@@H](Cc1ccccc1)NS(=O)(=O)c1ccc(-c2ccccc2)cc1 in this test.
**A:** no (0)

* * *

Catalogue of TGI values
Test system: SW-620 colon
test.details: NCI tumour cell line growth inhibition, 48 h

// solved cases for TGI follow
O=C(NC1CCCCC1)N1CCNC1=S    > 100 µM
Cc1ccnc2[nH]c(-c3ccc(Cl)cc3)cc(=O)c12    > 100 µM
OC(CBr)C(O)C(O)C(O)CBr (stereo unspecified)    > 100 µM
c1ccc(OCC[P+](c2ccccc2)(c2ccccc2)c2ccccc2)cc1    11.8 µM
Cn1c(=Nc2ccccc2[N+](=O)[O-])sc2ccccc21    > 100 µM

Could you now look at the following compound, please?
Reported SW-620 colon TGI for item O=C(NC12CC3CC(CC(C3)C1)C2)n1cnc2c(Cl)ncnc21 was > 100 µM

* * *

Test system: RPMI-8226 leukemia
test.details: NCI tumour cell line growth inhibition, 48 h
Label rule, in plain words: TGI of 20 µM and up is True, under 20 µM is False.

**Q:** Textbook exercise: given the entry O=C(NNC(=O)/C(=C/c1cccc([N+](=O)[O-])c1)NC(=O)c1ccccc1)Nc1ccc(Cl)cc1 , state whether its TGI is greater than or equal to 20 µM.
**A:** True

**Q:** Textbook exercise: given the entry CCCCCCCCCCCCCC(=O)OCC1OC(=O)C(O)C1O (stereo unspecified) , state whether its TGI is greater than or equal to 20 µM.
**A:** True

**Q:** Textbook exercise: given the entry Cc1ccccc1C1SCc2nc3ccccc3n21 (stereo unspecified) , state whether its TGI is greater than or equal to 20 µM.
**A:** True

**Q:** Textbook exercise: given the entry COc1ccc(C2[C@@H](Cl)C(=O)N2c2ccc(OC)cc2)cc1 (stereo partly specified) , state whether its TGI is greater than or equal to 20 µM.
**A:** True

**Q:** Textbook exercise: given the entry COc1cccc(/C=C/C(=O)c2cc3c(N)c(C(=O)Nc4ccccc4)sc3nc2C)c1 , state whether its TGI is greater than or equal to 20 µM.
**A:** False

**Q:** Textbook exercise: given the entry CN(C)c1ccc(/C=C(\C#N)C(=O)c2ccccc2)cc1Br , state whether its TGI is greater than or equal to 20 µM.
**A:** True

**Q:** Textbook exercise: given the entry O=C1NC(=O)/C(=C/c2ccc3nccc(-c4ccncc4)c3c2)S1 , state whether its TGI is greater than or equal to 20 µM.
**A:** False

**Q:** Textbook exercise: given the entry O=C(/C=C/c1cc2ccccc2[nH]c1=O)c1ccc(O)cc1 , state whether its TGI is greater than or equal to 20 µM.
**A:** True

**Q:** Textbook exercise: given the entry CCCN1CCN(c2ccc3nc(-c4ccc5nc(-c6ccc(OCC)cc6)[nH]c5c4)[nH]c3c2)CC1 , state whether its TGI is greater than or equal to 20 µM.
**A:** False

**Q:** Textbook exercise: given the entry C1=Nc2ccc(cc2)-c2ccc(cc2)N=Cc2ccccc2OCc2cccc(n2)COc2ccccc21 , state whether its TGI is greater than or equal to 20 µM.
**A:** True

**Q:** Textbook exercise: given the entry COc1ccc2cc(CNCCOCCOCCNCc3ccc4cc(OC)ccc4c3)ccc2c1 , state whether its TGI is greater than or equal to 20 µM.
**A:** False

**Q:** Textbook exercise: given the entry O=S1(=O)OCCOS(=O)(=O)C1C1c2ccccc2-c2ccccc21 , state whether its TGI is greater than or equal to 20 µM.
**A:** True
